# assaySystem: Fuc(a1-2)[GalNAc(a1-3)]Gal(b1-3)GlcNAc(b1-3)GalNAc
# experimentalProtocol: glycan array binding signal (z-score within array); higher = stronger binding
# reportedConditions: glycan notation: IUPAC condensed, linker removed
This is one part of a sample in which the strongest signals are shown more often than they occur.
Where glycan array binding signal (z-score) equals or exceeds 0.3, the correct label is Condition met; where it does not, the label is Condition not met.

Worked cases, answers included:
| binder | className |
| --- | --- |
| CPA (Cicer arietinum) (protein) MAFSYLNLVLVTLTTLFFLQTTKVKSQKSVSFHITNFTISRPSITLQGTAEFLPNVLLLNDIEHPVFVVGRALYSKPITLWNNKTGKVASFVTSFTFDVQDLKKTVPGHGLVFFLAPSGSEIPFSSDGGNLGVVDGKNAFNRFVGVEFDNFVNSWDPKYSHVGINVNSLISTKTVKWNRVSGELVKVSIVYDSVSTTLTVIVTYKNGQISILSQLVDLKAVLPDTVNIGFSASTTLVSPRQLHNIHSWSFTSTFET | Condition met |
| LlpA (Arthrobacter sp) (protein) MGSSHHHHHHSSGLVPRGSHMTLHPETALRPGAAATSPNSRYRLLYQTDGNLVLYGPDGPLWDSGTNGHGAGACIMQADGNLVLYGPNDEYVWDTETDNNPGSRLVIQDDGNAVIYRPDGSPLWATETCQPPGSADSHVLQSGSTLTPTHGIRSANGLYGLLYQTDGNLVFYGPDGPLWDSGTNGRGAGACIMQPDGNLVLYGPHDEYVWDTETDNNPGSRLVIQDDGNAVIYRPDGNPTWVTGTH | Condition met |
| Banana lectin (Musa acuminata) (protein) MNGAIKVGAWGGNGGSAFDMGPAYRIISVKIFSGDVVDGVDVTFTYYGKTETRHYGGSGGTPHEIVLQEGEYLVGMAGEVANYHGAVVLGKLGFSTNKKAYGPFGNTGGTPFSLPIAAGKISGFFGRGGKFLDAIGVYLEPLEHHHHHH | Condition not met |

Prompt: Tell me whether glycan array binding signal (z-score) is at least 0.3 here: EUL D1A (Oryza sativa) (protein) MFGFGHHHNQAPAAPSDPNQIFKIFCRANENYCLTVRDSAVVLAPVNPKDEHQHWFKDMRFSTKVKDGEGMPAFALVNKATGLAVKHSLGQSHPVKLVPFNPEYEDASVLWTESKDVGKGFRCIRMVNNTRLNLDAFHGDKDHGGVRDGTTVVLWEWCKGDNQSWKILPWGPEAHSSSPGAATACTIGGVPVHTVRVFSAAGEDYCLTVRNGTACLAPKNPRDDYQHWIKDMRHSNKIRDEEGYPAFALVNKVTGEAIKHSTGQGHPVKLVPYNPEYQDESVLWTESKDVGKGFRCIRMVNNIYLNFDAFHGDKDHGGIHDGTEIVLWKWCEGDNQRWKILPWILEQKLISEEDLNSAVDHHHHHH
Response: Condition met

Prompt: For pilr alpha (protein) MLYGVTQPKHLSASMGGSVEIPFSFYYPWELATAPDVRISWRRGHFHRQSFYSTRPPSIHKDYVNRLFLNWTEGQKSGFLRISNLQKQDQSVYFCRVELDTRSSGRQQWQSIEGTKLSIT then?
Response: Condition not met

Prompt: Likewise for Gal 10 (Homo sapiens), Q05315 (protein) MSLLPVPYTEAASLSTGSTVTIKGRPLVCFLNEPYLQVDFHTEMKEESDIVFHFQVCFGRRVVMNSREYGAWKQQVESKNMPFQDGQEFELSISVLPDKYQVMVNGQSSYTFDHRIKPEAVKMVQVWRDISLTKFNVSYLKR ?
Response: Condition met

Prompt: Let us now turn to KISKRILTGKK [NK11 (Sus scrofa)]
Response: Condition not met

Prompt: Now the binder CM2 (Cordyceps militaris) (protein) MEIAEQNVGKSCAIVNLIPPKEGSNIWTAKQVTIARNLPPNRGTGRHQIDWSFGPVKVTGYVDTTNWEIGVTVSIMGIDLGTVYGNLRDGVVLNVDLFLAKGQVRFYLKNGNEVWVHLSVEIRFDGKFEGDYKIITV
Response: Condition met

Reference source for all entries: the supplement of paper PMC8728848
